Assay: UV absorbing properties (UV spectrum in ethanol)
Assay type: physicochemical
Conditions: 5 ppm in ethanol, quartz cell 1 cm optical path length
Response field label: string, one of Condition met (Absorbance at maximal absorption wavelength strictly below 0.3) or Condition not met.

[
  {
    "SMILES_CODE": "COc1ccc(C=C2C(=O)N(CC(=O)OCCOCCO)C(=O)N2CC(=O)OCCOCCO)cc1",
    "CLASS_LABEL": "Condition met"
  },
  {
    "SMILES_CODE": "O=C(COc1ccc(C=C2NC(=O)N(CC(=O)OCCOCCO)C2=O)cc1)OCCOCCO",
    "CLASS_LABEL": "Condition met"
  },
  {
    "SMILES_CODE": "O=C1C(=Cc2ccc(OCCOCCOCCO)cc2)N(CCOCCOCCO)C(=O)N1CCOCCOCCO",
    "CLASS_LABEL": "Condition met"
  },
  {
    "SMILES_CODE": "COc1ccc(C=C2C(=O)N(CC(=O)N(CCO)CCO)C(=O)N2CC(=O)N(CCO)CCO)cc1",
    "CLASS_LABEL": "Condition met"
  },
  {
    "SMILES_CODE": "O=C(CCN1C(=O)NC(=Cc2ccc(OCCOCCO)cc2)C1=O)N(CCO)CCO",
    "CLASS_LABEL": "Condition not met"
  }
]

Hi there! Is Absorbance at maximal absorption wavelength for "O=C1NC(=Cc2ccc(OCCOCCO)cc2)C(=O)N1CCOCCO" below 0.3, do you know?
Condition not met

###

Assay: UV absorbing properties (UV spectrum in ethanol)
Format: physicochemical
Settings: 5 ppm in ethanol, quartz cell 1 cm optical path length
READOUT: Maximal absorption wavelength (λmax) (nm)
Respond numerically; units are nm and should not be typed.

[
  {
    "SMILES_CODE": "O=C(COc1ccc(C=C2NC(=O)N(CC(=O)OCCOCCO)C2=O)cc1)OCCOCCO",
    "Maximal absorption wavelength (λmax), nm": 335
  }
]

Which Maximal absorption wavelength (λmax) reading was recorded for the compound "COc1ccc(C=C2C(=O)N(CC(=O)N(CCO)CCO)C(=O)N2CC(=O)N(CCO)CCO)cc1" ?
328

Item under review: "O=C(COc1ccc(C=C2NC(=O)N(CC(=O)N(CCO)CCO)C2=O)cc1)N(CCO)CCO" . Reported Maximal absorption wavelength (λmax)?
336

###

Measured Solubility, listed per entry for reference.
Assay: Evaluation of hydrophilicity (solubility in test solvent)
Assay type: physicochemical
Settings: 25° C.; test solvent 10% by weight dipropylene glycol, 10% ethanol, 80% purified water

[
  {
    "SMILES_CODE": "O=C1C(=Cc2ccc(OCCOCCOCCO)cc2)N(CCOCCOCCO)C(=O)N1CCOCCOCCO",
    "Solubility": "25< g/100 g test solvent"
  },
  {
    "SMILES_CODE": "COc1ccc(C=C2C(=O)N(CC(=O)N(CCO)CCO)C(=O)N2CC(=O)N(CCO)CCO)cc1",
    "Solubility": "25< g/100 g test solvent"
  }
]

Here's the next entry for you.
Requested field: Solubility. Item: "COc1ccc(C=C2C(=O)N(CC(=O)OCCOCCO)C(=O)N2CC(=O)OCCOCCO)cc1"
25< g/100 g test solvent

###

Experiment: UV absorbing properties (UV spectrum in ethanol)
Format: physicochemical
Details: 5 ppm in ethanol, quartz cell 1 cm optical path length
READOUT: Maximal absorption wavelength (λmax) (nm)
Reply numerically in nm, unit not repeated.

Give its Maximal absorption wavelength (λmax) value. Item: O=C1NC(=Cc2ccc(OCCOCCO)cc2)C(=O)N1CCOCCO [Compound 1]
335

Need Maximal absorption wavelength (λmax), item COc1ccc(C=C2C(=O)N(CC(=O)OCCOCCO)C(=O)N2CC(=O)OCCOCCO)cc1 [Compound 7]
326

Give its Maximal absorption wavelength (λmax) value. Item: O=C(CCN1C(=O)NC(=Cc2ccc(OCCOCCO)cc2)C1=O)N(CCO)CCO [Compound 4]
338

Requested read-out: Maximal absorption wavelength (λmax). Entry: O=C1C(=Cc2ccc(OCCOCCOCCO)cc2)N(CCOCCOCCO)C(=O)N1CCOCCOCCO [Compound 2]
325
